target: KiSS-1 receptor (Homo sapiens); assay: Human kisspeptin (KISS1R) small molecule agonists, calcium flux assay in KISS1R-HEK293 cells (AID 1920064); conditions: KISS1R-HEK293, calcium flux fluorescence, agonist; series mostly up to 76.8 µM; also: % is scaled to controls: 0 for no effect and ±100 for the full control effect
Active and inactive are the calls of the source. Calls follow the shape of the dose curve; as a rule, active = well fitted activation curve with a large enough effect in the repeat runs; inconclusive = weak or mixed curves; inactive = flat fitted curve, though single readings scatter.

| molecule | activation |
| --- | --- |
| CN1CC(=O)N/C1=N/C(=O)Nc1cccc(Cl)c1 | inactive |
| CCCc1nn(C)c2c(=O)[nH]c(-c3cc(S(=O)(=O)N4CCN(C)CC4)ccc3OCC)nc12 | inactive |
| O=C(OOC(=O)c1ccccc1)c1ccccc1 | inactive |
| C[C@H](CCC(=O)O)[C@H]1CC[C@H]2[C@@H]3[C@H](O)C[C@@H]4C[C@H](O)CC[C@]4(C)[C@H]3C[C@H](O)[C@]12C | inactive |
| O=C(O)c1cccc(-c2noc(-c3ccccc3F)n2)c1 | inactive |
| Cc1cccc(C)n1 | inactive |
| CO[Si](OC)(OC)OC | inactive |
| Cc1cccc(C)c1NC(=O)c1cc(S(N)(=O)=O)c(Cl)cc1O | inactive |
| O=S(=O)(O)c1ccc(O)c2ncccc12 | inactive |
| CCCCNc1ccc(C(=O)OCCN(C)C)cc1 | inactive |
| COc1cc(C(=O)NS(=O)(=O)c2ccccc2C)ccc1Cc1cn(C)c2ccc(NC(=O)OC3CCCC3)cc12 | inactive |
| O=C(O)C(Cc1cc(I)c(O)c(I)c1)c1ccccc1 (configuration not stated) | inactive |

====

assay: p53 small molecule agonists, cell-based qHTS assay (AID 1963582); conditions: HCT-116 p53RE-bla reporter, beta-lactamase FRET ratio, 16 h; series mostly up to 66 µM; also: % is scaled to controls: 0 for no effect and ±100 for the full control effect
Records with an inconclusive call do not appear. The source made the active and inactive calls. Calls follow the shape of the dose curve; as a rule, active = well fitted activation curve with a large enough effect in the signal ratio in the repeat runs (not every such curve was filed as active); inconclusive = weak or mixed curves; inactive = flat fitted curve, though single readings scatter; the % refers to the signal ratio.

| compound | activation |
| --- | --- |
| C=CC(=O)OCC1CCCO1 (stereo not given) | inactive |
| CO[C@@H]1[C@@H](OC(N)=O)[C@@H](O)[C@H](Oc2ccc3c(O)c(NC(=O)c4ccc(O)c(CC=C(C)C)c4)c(=O)oc3c2C)OC1(C)C | inactive |
| CC(CCl)OC(C)CCl (stereo not given) | inactive |
| C1OCOCO1 | inactive |
| NCC[C@H](O)C(=O)N[C@@H]1C[C@H](N)[C@@H](O[C@H]2O[C@H](CN)[C@@H](O)[C@H](O)[C@H]2O)[C@H](O)[C@H]1O[C@H]1O[C@H](CO)[C@@H](O)[C@H](N)[C@H]1O | 0.378% [at 0.249 µM] (inactive) |

====

assay: p53 small molecule agonists, cell-based qHTS assay with human liver microsomes: qHTS cell viability counter screen (AID 1963579); conditions: p53RE-bla HCT-116 viability, ATP luminescence, 16 h, HLM; series mostly up to 66 µM; also: % is scaled to controls: 0 for no effect and ±100 for the full control effect; nearly all actives have a fitted effect of over 45% in size
Results filed as inconclusive are left out. The source made the active and inactive calls. The call rests on the fitted dose curve.
recorded.endpoint: activity change, negative = cytotoxicity

| compound | value.reported |
| --- | --- |
| CC(C)(C)OC(=O)N1C[C@@H](F)C[C@H]1C(=O)O | inactive |
| CCOC(=O)c1ccccc1O | inactive |
| Cl[Si](Cl)(c1ccccc1)c1ccccc1 | inactive |
| O=C(CCN1CCN2CCCC2C1)N1c2ccccc2Sc2ccc(Cl)cc21 (stereo unspecified) | -1.69% [at 13.5 µM] (inactive) |
| COc1ccccc1Oc1c(NS(=O)(=O)c2ccc(C(C)(C)C)cc2)nc(-c2ncccn2)nc1OCCO | inactive |
| c1ccc(CCNc2nc(-c3ccccc3)cs2)cc1 | inactive |

====

target: Beta-2 adrenergic receptor (Homo sapiens) (UniProt P07550); assay: Adrenergic beta2 receptor (ADRB2) small molecule antagonists, cell-based qHTS assay (AID 1963592); conditions: CHO-ADRB2 cells, isoproterenol-stimulated cAMP HTRF ratio, 0.5 h; series mostly up to 92.4 µM; also: % is scaled to controls: 0 for no effect and ±100 for the full control effect; nearly all actives have a fitted effect of over 50% in size
Sequence (P07550 whole entry, looked up): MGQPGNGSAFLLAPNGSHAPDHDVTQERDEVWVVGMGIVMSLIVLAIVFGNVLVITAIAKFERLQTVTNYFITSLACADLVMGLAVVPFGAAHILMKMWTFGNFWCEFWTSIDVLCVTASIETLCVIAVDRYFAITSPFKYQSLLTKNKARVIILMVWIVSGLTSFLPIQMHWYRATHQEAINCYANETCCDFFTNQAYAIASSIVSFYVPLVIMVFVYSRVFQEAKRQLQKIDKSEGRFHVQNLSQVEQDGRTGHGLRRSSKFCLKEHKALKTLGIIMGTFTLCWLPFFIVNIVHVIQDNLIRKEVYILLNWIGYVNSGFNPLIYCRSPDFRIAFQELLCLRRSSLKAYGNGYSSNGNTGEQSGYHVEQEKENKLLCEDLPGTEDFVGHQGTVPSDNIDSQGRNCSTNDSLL
Records with an inconclusive call do not appear. Activity calls are given as the source filed them. The call rests on the fitted dose curve.
recorded.endpoint: activity change, negative = inhibition

| compound | value.reported |
| --- | --- |
| CCCCCCCCCOC(=O)c1ccc(O)cc1 | inactive |
| O=C1CCCc2c(O)cccc21 | inactive |
| Cc1ccc(O)cn1 | inactive |
| CCOc1ccccc1N | inactive |
| Oc1ccccc1C=NCc1ccccc1 | inactive |
| CCCCCCC | inactive |
| COc1ccc2[nH]c(S(=O)Cc3ncc(C)c(OC)c3C)nc2n1 (stereo not drawn) | inactive |
| CC(C)(C)c1cc(CCC(=O)NCCCCCCNC(=O)CCc2cc(C(C)(C)C)c(O)c(C(C)(C)C)c2)cc(C(C)(C)C)c1O | inactive |

====

test: p53 small molecule agonists, cell-based qHTS assay with rat liver microsomes (AID 1963578); details: HCT-116 p53RE-bla, beta-lactamase ratio, 16 h; series mostly up to 66 µM; also: % is scaled to controls: 0 for no effect and ±100 for the full control effect
Results filed as inconclusive are left out. Active and inactive are the calls of the source. Calls come from the whole dose curve.

| compound | activation |
| --- | --- |
| CCc1ccc(C(=O)C(C)CN2CCCCC2)cc1 (stereo unspecified) | inactive |
| CCCCC(CC)CN1C(=O)C2C3C=CC(C3)C2C1=O (stereo unspecified) | inactive |
| CC1CCc2cc(F)cc3c(=O)c(C(=O)O)cn1c23 (stereo unspecified) | inactive |
| O=C(c1ccc(F)cc1)C1CCN(CCn2c(=O)[nH]c3ccccc3c2=O)CC1 | inactive |
| O=C(Nc1cccc(C2=NCCN2)c1)Nc1cccc(C2=NCCN2)c1 | -1.12% [at 13.6 µM] (inactive) |
| NS(=O)(=O)c1ccc(Cl)c(S(N)(=O)=O)c1 | inactive |

====

assay: Nuclear factor erythroid 2-related factor 2/antioxidant responsive element (Nrf2/ARE) small molecule agonists: luciferase reporter gene qHTS assay in human keratinocytes (AID 1919969); conditions: KeratinoSens HaCaT ARE-luciferase, luminescence, 24 h; series mostly up to 92.4 µM; also: nearly all actives have a fitted effect of over 35% in size
Results filed as inconclusive are left out. Active and inactive are the calls of the source. Calls come from the whole dose curve.
Outcomes: 1 (yes) for active, 0 (no) for inactive

| compound | category |
| --- | --- |
| Cc1ccnc2ccccc12 | 1 (yes) |
| O=c1[nH]c(=O)n([C@H]2C[C@H](O)[C@@H](CO)O2)cc1I | 0 (no) |
| CCC(C(=O)O)c1ccc(N2Cc3ccccc3C2=O)cc1 (configuration not stated) | 0 (no) |
| CC[C@H]1OC(=O)[C@H](C)[C@@H](O[C@H]2C[C@@](C)(OC)[C@@H](O)[C@H](C)O2)[C@H](C)[C@@H](O[C@@H]2O[C@H](C)C[C@H](N(C)C)[C@H]2O)[C@](C)(O)C[C@@H](C)C(=O)[C@H](C)[C@@H](O)[C@]1(C)O | 0 (no) |
| CNC(=O)CN(CCN(CCN(CC(=O)[O-])CC(=O)NC)CC(=O)[O-])CC(=O)[O-].O.[Gd+3] | 0 (no) |
| COc1ccccc1N1CCN(CC(O)COc2cc(OC)c(OC)c(OC)c2)CC1 (configuration not stated) | 0 (no) |
| NC(=O)NC(=O)Cc1ccccc1 | 0 (no) |
| CCNc1nc(NC(C)(C)C)nc(OC)n1 | 0 (no) |
| O=C(O)C(=O)Cc1c[nH]c2ccccc12 | 1 (yes) |
| C1CCN(CN2CCCCC2)CC1 | 0 (no) |
| O=C(NCCCN1CCOCC1)c1ccc(Cl)cc1 | 0 (no) |
| CCCCCCCC/C=C\CCCCCCCCCCCC(=O)O | 0 (no) |

====

assay: Nuclear factor erythroid 2-related factor 2/antioxidant responsive element (Nrf2/ARE) small molecule agonists: qHTS cell viability counter screen in human keratinocytes (AID 1919968); conditions: KeratinoSens HaCaT ARE cells viability, CellTiter-Fluor, 24 h; series mostly up to 92.4 µM; also: nearly all actives have a fitted effect of over 55% in size
Inconclusive results are not listed. Activity calls are given as the source filed them. Calls come from the whole dose curve; as a rule, active = well fitted cell-killing curve with a large enough effect in the repeat runs; inconclusive = weak or mixed curves, or effect the other way; inactive = flat fitted curve, though single readings scatter.
Outcomes: label 1 (active), label 0 (inactive)

| compound | category |
| --- | --- |
| C=C(C)c1cccc(C(C)(C)N=C=O)c1 | label 0 |
| Nc1ccc(F)c([N+](=O)[O-])c1 | label 0 |
| CC(C)(c1ccc(Oc2ccc3c(c2)C(=O)OC3=O)cc1)c1ccc(Oc2ccc3c(c2)C(=O)OC3=O)cc1 | label 0 |
| Cn1cccc1 | label 0 |
| CC1(C)S[C@@H]2[C@H](N=CN3CCCCCC3)C(=O)N2[C@H]1C(=O)O | label 0 |
| O=C1OC(=O)c2cccc3cccc1c23 | label 0 |
| C=C(C)C(=O)OCCCC | label 0 |
| COc1cc(C)ccc1C(C)C | label 0 |
| [Cl][Sc]([Cl])[Cl] | label 0 |
| O=C(O)CCCc1c[nH]c2ccccc12 | label 0 |
| N[C@H]1CN(c2c(F)cc3c(=O)c(C(=O)O)cn(C4C[C@H]4F)c3c2Cl)CC12CC2 (some centres undefined) | label 0 |
| CCCCCCCCCOC(=O)c1ccc(O)cc1 | label 1 |
| CCC(=O)OC(=O)CC | label 0 |
| CCOC(=O)CC(=O)c1cc(F)c(Cl)nc1Cl | label 0 |
